These data points were gathered from PubChem BioAssay (NCI).

- Test system: SN12C renal
- MEASUREMENT_DESCRIPTION: NCI tumour cell line growth inhibition, 48 h
TEST_READOUT: TGI

Request the reported TGI associated with Cc1cc2c3c(nc2c2cc[nH]c(C)c12)CCCC3 3.39 µM

Hello, I would appreciate it if you could give TGI for each entry below.
1. CC1(C)CC[C@]2(C)[C@@H](O)C[C@]3(C)C(=CC[C@@H]4[C@@]5(C)CC[C@H](O)C(C)(C)[C@@H]5CC[C@]43C)[C@@H]2C1
2. CCCNC(=O)Cn1c2c(c3ccccc31)CCCC2
3. O=C1C=CC(=O)c2c(O)c(NCCN3CCOCC3)c(Cl)c(O)c21
4. COc1ccc(C2=NN(C(C)=O)c3nc4ccccc4nc3O2)cc1
5. COc1ccc(-c2oc3ncnc(N)c3c2-c2ccc(NC(=O)Nc3cc(C(F)(F)F)ccc3F)cc2)cc1
6. N#Cc1ccc2[nH]cc(Cc3c[nH]c4ccc(C#N)cc34)c2c1
7. CCCC(=O)Oc1ccc(/C=N/NC(N)=S)nc1

1. > 100 µM
2. > 100 µM
3. 3.23 µM
4. > 100 µM
5. 3.75 µM
6. > 50 µM
7. > 100 µM

Hello, I would appreciate it if you could give TGI for each entry below.
1. NCCCNCc1c2ccccc2c(CNCCCN)c2ccccc12
2. Cc1cc(OP2(=O)NCc3ccncc3O2)ccc1Cl (configuration not stated)
3. Cc1ccc(C(=O)C2C=C(c3ccc(C)cc3)SC3C=CCC32)cc1 (configuration not stated)
4. CO/S(=N/S(=O)(=O)c1ccccc1)c1ccccc1[N+](=O)[O-] (configuration not stated)
5. Cc1cn(C(CO)OC(CO)CN(O)C2C3CC4CC(C3)CC2C4)c(=O)[nH]c1=O (configuration not stated)
6. CN(CCO)CCC1COc2ccccc2O1 (configuration not stated)
7. Cc1cc(C)c([I+]c2c(C)cc(C)cc2C)c(C)c1

1: 18.5 µM; 2: > 100 µM; 3: 33.1 µM; 4: > 100 µM; 5: > 100 µM; 6: > 10 µM; 7: 1.21 µM

Hello, I would appreciate it if you could give TGI for each entry below.
1. C/C(COc1ccc2oc(-c3ccccc3)cc(=O)c2c1)=N\O
2. CCOC(=O)c1ccc(NCc2ccc3nc(OC)c(OC)nc3c2)cc1
3. CC1(C)N=C(N)N=C(N)N1c1cccc(CCCCc2ccc(Cl)c(S(=O)(=O)F)c2)c1
4. Cc1ccc(NC(=O)C(=O)C2C(=O)NC(=O)NC2=O)c(C)c1
5. CC(=O)O[C@H]1CC[C@@]2(C)C(=CC[C@H]3C(CC#N)[C@@](C)(C#N)CCC32)C1 (some centres not stated)
6. O=C(N/N=C/c1ccc([N+](=O)[O-])cc1)c1ccccc1Nc1ccnc(C(F)(F)F)c1

["> 100 µM", "> 100 µM", "16.4 µM", "28.2 µM", "> 100 µM", "> 100 µM"]

Request the reported TGI associated with CC1=C/C(=N\NS(=O)(=O)c2ccc([N+](=O)[O-])cc2)CC(C)(C)C1 > 100 µM

###

Kindly state TGI for each of the entries shown.
- System: RXF 393 renal
- MEASUREMENT_DESCRIPTION: NCI tumour cell line growth inhibition, 48 h
One number for each entry, in µM.

Sample records with TGI:
Request the reported TGI associated with O=C(N/N=C/c1ccc([N+](=O)[O-])cc1)c1ccccc1Nc1ccnc(C(F)(F)F)c1 42.8

Request the reported TGI associated with COc1cc(/C=C2\N=C(c3ccccc3)N(c3nc4ccccc4s3)C2=O)cc(OC)c1OC 50.7

Shift focus to the following entry.
Request the reported TGI associated with Cc1cc(C)n(CN(CCCCO)Cn2nc(C)cc2C)n1 39
